- Protocol: Tmax in mouse at 10 mg/kg, po
- Format: ADME, organism-based
- Condition summary: in vivo
Quantity: Tmax (min)
Output spec: scalar in min, unitless text.

Challenge: Given the compound `CO[C@H]1C[C@@H](C)C/C(C)=C/[C@@H](CCCSCCO)C(=O)C[C@H](O)[C@@H](C)[C@@H](/C(C)=C/[C@@H]2CC[C@@H](O)[C@H](OC)C2)OC(=O)[C@@H]2CCCCN2C(=O)C(=O)[C@]2(O)O[C@H]1[C@@H](OC)C[C@H]2C` , write its reported Tmax.
Response given: 30

Challenge: Complete the entry with Tmax for CC[C@@H]1/C=C(\C)C(O)[C@H](C)C[C@H](OC)[C@H]2O[C@@](O)(C(=O)C(=O)N3CCCC[C@H]3C(=O)O[C@H](/C(C)=C/[C@@H]3CC[C@@H](O)[C@H](OC)C3)[C@H](C)[C@@H](O)CC1=O)[C@H](C)C[C@@H]2OC (stereo partly drawn)
Response given: 15

Challenge: Please give the documented Tmax of `CO[C@H]1C[C@@H](C)C/C(C)=C/[C@@H](CC(=O)N2CCCC2)C(=O)C[C@H](O)[C@@H](C)[C@@H](/C(C)=C/[C@@H]2CC[C@@H](OC(=O)N3CC(O)C3)[C@H](OC)C2)OC(=O)[C@@H]2CCCCN2C(=O)C(=O)[C@]2(O)O[C@H]1[C@@H](OC)C[C@H]2C`
Response given: 30

###

- Tested on: PBMC
- Protocol: Reversal of FK506-induced inhibition of cell proliferation in concanavalin A stimulated human PBMC at 1 uM measured after 72 hrs by CellTiter-Glo assay relative to control
- Assay type: functional
- Set-up: scale not given: the % may be the effect or the level left
Can you tell me Activity for the items I'm about to list?
Enter your answer as a number in %; do not include the unit.

Challenge: Specify Activity for `CO[C@H]1C[C@@H](C)C/C(C)=C/[C@@H](CCCSCCO)C(=O)C[C@H](O)[C@@H](C)[C@@H](/C(C)=C/[C@@H]2CC[C@@H](O)[C@H](OC)C2)OC(=O)[C@@H]2CCCCN2C(=O)C(=O)[C@]2(O)O[C@H]1[C@@H](OC)C[C@H]2C` , system PBMC.
Response given: 96.5

Challenge: Tell me Activity of `CC[C@@H]1/C=C(\C)C[C@H](C)C[C@H](OC)[C@H]2O[C@@](O)(C(=O)C(=O)N3CCCC[C@H]3C(=O)O[C@H](/C(C)=C/[C@@H]3CC[C@@H](OC(=O)N4CCN(C)CC4)[C@H](OC)C3)[C@H](C)[C@@H](O)CC1=O)[C@H](C)C[C@@H]2OC` when tested on PBMC.
Response given: 79.8

Challenge: Would you please give the reported Activity of `CO[C@H]1C[C@@H](C)C/C(C)=C/[C@@H](/C=C/CCCC(=O)N2CCNCC2)C(=O)C[C@H](O)[C@@H](C)[C@@H](/C(C)=C/[C@@H]2CC[C@@H](O)[C@H](OC)C2)OC(=O)[C@@H]2CCCCN2C(=O)C(=O)[C@]2(O)O[C@H]1[C@@H](OC)C[C@H]2C` with PBMC?
Response given: 27.5

Challenge: # lookup: PBMC Activity, key = `CO[C@H]1C[C@@H](C)C/C(C)=C/[C@@H](CCCC(=O)NCCN2CCOCC2)C(=O)C[C@H](O)[C@@H](C)[C@@H](/C(C)=C/[C@@H]2CC[C@@H](O)[C@H](OC)C2)OC(=O)[C@@H]2CCCCN2C(=O)C(=O)[C@]2(O)O[C@H]1[C@@H](OC)C[C@H]2C`
Response given: 45.9

###

- Protocol: AUClast in mouse at 3 mg/kg, iv
- Type: ADME, organism-based
- Set-up: dose 3 mg/kg, time 0 - last, route intravenous
- Condition summary: in vivo
Given measured AUC(0-t), output Criterion met if it is greater than or equal to 2000 ng·h/mL and Criterion not met if not.

Challenge: Determine whether measured AUC(0-t) meets or exceeds 2000 ng·h/mL for CC[C@@H]1/C=C(\C)C(O)[C@H](C)C[C@H](OC)[C@H]2O[C@@](O)(C(=O)C(=O)N3CCCC[C@H]3C(=O)O[C@H](/C(C)=C/[C@@H]3CC[C@@H](O)[C@H](OC)C3)[C@H](C)[C@@H](O)CC1=O)[C@H](C)C[C@@H]2OC (stereo not given in full)
Response given: Criterion not met

Challenge: Item `CO[C@H]1C[C@@H](C)C/C(C)=C/[C@@H](CCCSCCO)C(=O)C[C@H](O)[C@@H](C)[C@@H](/C(C)=C/[C@@H]2CC[C@@H](O)[C@H](OC)C2)OC(=O)[C@@H]2CCCCN2C(=O)C(=O)[C@]2(O)O[C@H]1[C@@H](OC)C[C@H]2C` with AUC(0-t) of 2000 ng·h/mL or above?
Response given: Criterion met

Challenge: Identify whether the reported AUC(0-t) of the following compound is 2000 ng·h/mL or greater: `CO[C@H]1C[C@@H](C)C/C(C)=C/[C@@H](CC(=O)N2CCCC2)C(=O)C[C@H](O)[C@@H](C)[C@@H](/C(C)=C/[C@@H]2CC[C@@H](OC(=O)N3CC(O)C3)[C@H](OC)C2)OC(=O)[C@@H]2CCCCN2C(=O)C(=O)[C@]2(O)O[C@H]1[C@@H](OC)C[C@H]2C`
Response given: Criterion met

Challenge: # check: AUC(0-t) of C=CC[C@@H]1/C=C(\C)C[C@H](C)C[C@H](OC)[C@H]2O[C@@](O)(C(=O)C(=O)N3CCCC[C@H]3C(=O)O[C@H](/C(C)=C/[C@@H]3CC[C@@H](O)[C@H](OC)C3)[C@H](C)[C@@H](O)CC1=O)[C@H](C)C[C@@H]2OC [TACROLIMUS ANHYDROUS] is greater than or equal to 2000 ng·h/mL
Response given: Criterion not met

Challenge: Evaluate `CO[C@H]1C[C@@H](C)C/C(C)=C/[C@@H](CC(=O)N2CCCC2)C(=O)C[C@H](O)[C@@H](C)[C@@H](/C(C)=C/[C@@H]2CC[C@@H](O)[C@H](OC)C2)OC(=O)[C@@H]2CCCCN2C(=O)C(=O)[C@]2(O)O[C@H]1[C@@H](OC)C[C@H]2C` : AUC(0-t) at minimum 2000 ng·h/mL?
Response given: Criterion met

###

- Protocol: Volume of distribution at steady state in mouse at 3 mg/kg, iv
- Assay type: ADME, organism-based
- Condition summary: in vivo, read-out: Vdss
Give measured Vd for each item. Keep answers brief.
Your answer should be a plain number; it is taken to be in L/kg.

Challenge: Report measured Vd; entry is `CO[C@H]1C[C@@H](C)C/C(C)=C/[C@@H](CC(=O)N2CCCC2)C(=O)C[C@H](O)[C@@H](C)[C@@H](/C(C)=C/[C@@H]2CC[C@@H](O)[C@H](OC)C2)OC(=O)[C@@H]2CCCCN2C(=O)C(=O)[C@]2(O)O[C@H]1[C@@H](OC)C[C@H]2C`
Response given: 1.01

Challenge: Fill in Vd for record CC[C@@H]1/C=C(\C)C(O)[C@H](C)C[C@H](OC)[C@H]2O[C@@](O)(C(=O)C(=O)N3CCCC[C@H]3C(=O)O[C@H](/C(C)=C/[C@@H]3CC[C@@H](O)[C@H](OC)C3)[C@H](C)[C@@H](O)CC1=O)[C@H](C)C[C@@H]2OC (stereo partly drawn)
Response given: 2.58

Challenge: Note Vd for the molecule shown: `CO[C@H]1C[C@@H](C)C/C(C)=C/[C@@H](CCCSCCO)C(=O)C[C@H](O)[C@@H](C)[C@@H](/C(C)=C/[C@@H]2CC[C@@H](O)[C@H](OC)C2)OC(=O)[C@@H]2CCCCN2C(=O)C(=O)[C@]2(O)O[C@H]1[C@@H](OC)C[C@H]2C`
Response given: 1.17
